Form: system (Adenosine receptor A1 (Homo sapiens, UniProt P30542)), quantity (AC50), values below. Also: assay procedure not described here.
REPORTED_METRIC: AC50

| COMPOUND | REPORTED_METRIC | DATA_VALUE |
| --- | --- | --- |
| COc1c(N2CCNC(C)C2)c(F)cc2c(=O)c(C(=O)O)cn(C3CC3)c12 (stereo unspecified) | AC50 | > 10 µM |
| CN1C(=O)CC(=O)N(c2ccccc2)c2cc(Cl)ccc21 | AC50 | > 10 µM |
| CCN1CCC[C@H]1CNC(=O)c1cc(S(N)(=O)=O)ccc1OC [LEVOSULPIRIDE] | AC50 | > 30 µM |
| C[C@H]1C[C@@H]2[C@H]([C@@H](O)C[C@@]3(C)[C@H]2CC[C@]3(O)C(=O)CO)[C@@]2(C)C=CC(=O)C=C12 | AC50 | > 10 µM |
| CC(C(=O)O)c1ccc(C(=O)c2cccs2)cc1 (stereo unspecified) | AC50 | > 10 µM |
| Nc1ncnc2c1ncn2[C@@H]1O[C@H](COP(=O)(O)O)[C@@H](O)[C@H]1O [ADENOSINE PHOSPHATE] | AC50 | > 30 µM |
| CCN(CC)CCOC(=O)c1ccc(N)cc1 | AC50 | > 30 µM |
| CC(C)C(=O)OCC(=O)[C@@]12O[C@H](C3CCCCC3)O[C@@H]1C[C@H]1[C@@H]3CCC4=CC(=O)C=C[C@]4(C)[C@H]3[C@@H](O)C[C@@]12C [CICLESONIDE] | AC50 | > 30 µM |
| [H]/N=C(/N)c1ccc(NCc2nc3cc(C(=O)N(CCC(=O)O)c4ccccn4)ccc3n2C)cc1 | AC50 | > 30 µM |
| CCc1ccc(CCOc2ccc(CC3SC(=O)NC3=O)cc2)nc1 (stereo unspecified) | AC50 | > 30 µM |
| CC[C@]1(O)C[C@@H]2CN(CCc3c([nH]c4ccccc34)[C@@](C(=O)OC)(c3cc4c(cc3OC)N(C)[C@H]3[C@@](O)(C(N)=O)[C@H](O)[C@]5(CC)C=CCN6CC[C@]43[C@@H]65)C2)C1 | AC50 | > 30 µM |
| NS(=O)(=O)c1cc2c(cc1Cl)NCNS2(=O)=O [HYDROCHLOROTHIAZIDE] | AC50 | > 30 µM |
| CCC[C@@H]1C[C@@H](C(=O)N[C@@H]([C@H]2O[C@H](SC)[C@H](O)[C@@H](O)[C@H]2O)[C@H](C)Cl)N(C)C1 | AC50 | > 30 µM |
| CCCCCOC(=O)Nc1nc(=O)n([C@@H]2O[C@H](C)[C@@H](O)[C@H]2O)cc1F | AC50 | > 30 µM |
| CN(C/C=C/c1ccccc1)Cc1cccc2ccccc12 | AC50 | > 30 µM |
| CCOC(=O)[C@H](CCc1ccccc1)N[C@@H](C)C(=O)N1CCC[C@H]1C(=O)O | AC50 | > 30 µM |
